Documented inhibition across a set of molecules
Molecular target: Endonuclease III-like protein 1 (Homo sapiens) (UniProt P78549);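 further: enzyme assay tracking NTHL1 cutting and release of a quenched double-stranded DNA oligo substrate, read as fluorescence at 594 nm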
Sequence (whole entry): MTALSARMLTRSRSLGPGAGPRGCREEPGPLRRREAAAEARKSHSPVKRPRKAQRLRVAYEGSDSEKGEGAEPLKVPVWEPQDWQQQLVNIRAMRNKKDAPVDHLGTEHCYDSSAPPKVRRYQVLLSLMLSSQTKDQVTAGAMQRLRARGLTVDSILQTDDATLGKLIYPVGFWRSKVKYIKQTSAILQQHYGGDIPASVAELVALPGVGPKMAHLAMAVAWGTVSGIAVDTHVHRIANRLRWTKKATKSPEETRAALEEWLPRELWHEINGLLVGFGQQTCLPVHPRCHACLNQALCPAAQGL
Settings: Compound Concentration 10.0 uM, Hit No
Description: Inhibition of NTHL1 by quantifying inhibition of NTHL1-mediated cleavage and dissociation of quenched duplex DNA oligonucleotides, measured as fluorescence at 594 nm.
Where a SMILES comes first, the peptide text is derived from it. [ ]: non-standard residue; d: D form. Arg(Me) = CNC(=N)NCCC[C@H](N)C(=O)O; d4Pal = N[C@H](Cc1ccncc1)C(=O)O; azaGly = NNC(=O)O
The figure you give is taken to be in %; do not add the unit.

Reference set, count: 3
| MOLECULE | TGT | REPORTED_RESULT |
| --- | --- | --- |
| CCO[C@H](COc1ccc(C(F)(F)F)cc1)CSc1ccc(OCC(=O)O)c(C)c1 | Endonuclease III-like protein 1 (Homo sapiens) (UniProt P78549) | -4.57 |
| CNC(=N)NCCC[C@H](NC(=O)[C@H](CC(C)C)NC(=O)NNC(=O)[C@H](Cc1ccccc1)NC(=O)[C@H](CO)NC(=O)[C@H](CC(N)=O)NC(=O)[C@@H](Cc1ccncc1)NC(=O)[C@H](N)Cc1ccc(O)cc1)C(=O)N[C@@H](Cc1ccccc1)C(N)=O (H-[dY][d4Pal]NSF[azaGly]L[Arg(Me)]F-NH2) | Endonuclease III-like protein 1 (Homo sapiens) (UniProt P78549) | -1.29 |
| CCCCCCOc1cc2n(c(=O)n1)CCc1cc(OC)c(OC)cc1-2 | Endonuclease III-like protein 1 (Homo sapiens) (UniProt P78549) | -4.39 |

Indicate its recorded inhibition; the molecule in question is `COc1cc2nc(N3CCN(C(=O)COc4c(OC)cccc4C(C)C)CC3)nc(N)c2cc1OC`
17.9

Provide only the value of recorded inhibition for `Cc1c(N2CCNCC2)nc2ccc(Br)cc2c1C(=O)NC[C@H](CCC(=O)O)c1ccccc1Cl`
-7.86

Indicate the recorded inhibition value for this molecule: `N[C@@H]1c2cccnc2[C@H](OC(=O)N2CCC(n3c(=O)[nH]c4ncccc43)CC2)CC[C@H]1c1cccc(F)c1F`
-6.14

State its inhibition for this molecule: `OCCN1CCN(CCCN2c3ccccc3Sc3ccc(Cl)cc32)CC1`
3.39

Using known records, supply inhibition for `O=C(O)CC1CCC2(CC1)CCN(c1cc(OC(F)(F)F)ccc1Cl)CC2`
-1.74

Please indicate inhibition recorded for `COc1ccc2c(c1)O[C@@H](c1ccc(OC)c(OC)c1)C[C@H]2NC(=O)C1(c2ccc3c(c2)OC(F)(F)O3)CC1`
-7.86

Retrieve inhibition measured for `N#Cc1c(N)nc(SCc2csc(-c3ccc(Cl)cc3)n2)c(C#N)c1-c1ccc(OCCO)cc1` and print it.
4.7

Identify measured inhibition associated with `Cc1nccc(COC(=O)N2C[C@@H]3[C@@H](CNC(=O)c4ccc5[nH]nnc5c4)[C@@H]3C2)n1`
0.685

Provide only the value of recorded inhibition for `CCC(=O)OCC(=O)[C@@]1(OC(=O)CC)[C@@H](C)C[C@H]2[C@@H]3CCC4=CC(=O)C=C[C@]4(C)[C@@]3(Cl)[C@@H](O)C[C@@]21C`
22.4

For the molecule `CC1(C)CN2C(CS/C(=N\C3CCCCC3)NC3CCCCC3)=CSC2=N1` , give its measured inhibition value.
11.3

Look up and state reported inhibition for `COc1ccc(CC(=O)NCc2ccccc2-c2ccccc2C(=O)NCc2ccc(F)cc2F)cc1`
-5.21

Taken from ChEMBL document CHEMBL5665443.
